- target desc: Recombinant human HSP90α (Homo sapiens, UniProt P07900)
- run description: radioligand filter binding test, competitive inhibition of [3H]17AAG binding to HSP90
- conditions used: [3H]17AAG 0.08 μM, HSP90 1.5 μg/assay, 22° C., 30 min
measured metric: pIC50
Scale: negative log10 of molar concentration, which is what pIC50 denotes.

>>> print(df.to_string())
                                   compound  obs_value
0  CCCN(C)S(=O)(=O)c1cc(-c2nnc(O)n2-c2ccccc2C)c(O)cc1O [A40]       6.85

[ask] Notebook entry, Recombinant human HSP90α (Homo sapiens, UniProt P07900) assay: pIC50 of CCCN(C)S(=O)(=O)c1cc(-c2nnc(O)n2-c2cccc(F)c2)c(O)cc1O [A39] = ?
[reply] 6.74

[ask] What measured pIC50 is associated with CCCCN(C)S(=O)(=O)c1cc(-c2nnc(O)n2-c2ccccc2Cl)c(O)cc1O [A26] on Recombinant human HSP90α (Homo sapiens, UniProt P07900)?
[reply] 6.92

[ask] Form: Entry = CCCN(C)S(=O)(=O)c1cc(-c2nnc(O)n2-c2cccc(Cl)c2)c(O)cc1O [A38] | System = Recombinant human HSP90α (Homo sapiens, UniProt P07900) | pIC50 = ____
[reply] 6.48

[ask] // map CCCN(C)S(=O)(=O)c1cc(-c2nnc(O)n2-c2ccccc2Cl)c(O)cc1O [A28] to recorded pIC50 (system: Recombinant human HSP90α (Homo sapiens, UniProt P07900))
[reply] 6.80

[ask] // map CCCN(C)S(=O)(=O)c1cc(-c2nnc(O)n2-c2ccccc2CC)c(O)cc1O [A34] to recorded pIC50 (system: Recombinant human HSP90α (Homo sapiens, UniProt P07900))
[reply] 7.10

[ask] # get_value(readout= pIC50, system= Recombinant human HSP90α (Homo sapiens, UniProt P07900)) for CN(Cc1ccccc1)S(=O)(=O)c1cc(-c2nnc(O)n2-c2ccccc2Cl)c(O)cc1O [A32]
[reply] 6.85

Data credit: patent US8618285B2
